molecular target: DA-specific aptamer (58 mer); test: Potentiometric FIA sensorgram, gelatin B sensor with covalently linked DA-specific aptamer; conditions: mean of four electrodes; read-out: mean value of Kdiss
pKd: −log10 of the molar value.
measurementType: pKd

NCCc1ccc(O)c(O)c1
5.88
